- protocol: qHTS for Inhibitors of human tyrosyl-DNA phosphodiesterase 1 (TDP1): qHTS in cells in presence of CPT; further: nearly all actives have a fitted effect of over 55% in size
- appliedConditions: chicken DT40 Tdp1-/-;hTDP1 cells + 20 nM CPT, ATP luminescence, 48 h; series mostly up to 46.2 µM
In all, about 420,000 compounds went through this assay and about 50,000 (12%) were called active. About 26% were inconclusive and are not listed. The call rests on the fitted dose curve; in most records, active means well fitted inhibition curve with a large enough effect; inconclusive means small, poorly fitted or top-dose-only effect; inactive means flat fitted curve, though single readings scatter. For the sample, actives were picked, then their nearest neighbours and some compounds at random.
Classes to choose from: active, inactive

stdin: Identify the outcome logged in this assay for the compound shown: O=C(CCS(=O)(=O)c1ccccc1Cl)Nc1ccc(S(=O)(=O)Nc2ncccn2)cc1
stdout: inactive

stdin: Identify the outcome logged in this assay for the compound shown: COc1ccccc1NC(=O)c1cc(Cl)nnc1Cl
stdout: inactive

----------
- protocol: qHTS for Inhibitors of human tyrosyl-DNA phosphodiesterase 1 (TDP1): qHTS in cells in presence of CPT; further: nearly all actives have a fitted effect of over 55% in size
- appliedConditions: chicken DT40 Tdp1-/-;hTDP1 cells + 20 nM CPT, ATP luminescence, 48 h; series mostly up to 46.2 µM
Hit rate of the full screen: of about 420,000 compounds, about 50,000 (12%) were called active. Roughly 26% stayed inconclusive and do not appear here. The list comes from a sample in which actives are over-represented; it also holds close analogues and randomly drawn compounds.
reportedEndpoint: outcome

NC(=O)N1CCc2ccccc21: inactive
O=C(CSc1nccc(=O)[nH]1)Nc1ccc(N2CCOCC2)c(Cl)c1: inactive
CCN(CC)S(=O)(=O)c1ccc(C(=O)N2CCN(C3=NS(=O)(=O)c4ccccc43)CC2)cc1: inactive

----------
- protocol: qHTS for Inhibitors of human tyrosyl-DNA phosphodiesterase 1 (TDP1): qHTS in cells in presence of CPT; further: nearly all actives have a fitted effect of over 55% in size
- appliedConditions: chicken DT40 Tdp1-/-;hTDP1 cells + 20 nM CPT, ATP luminescence, 48 h; series mostly up to 46.2 µM
Screen size: about 420,000 compounds; about 50,000 (12%) were called active. Not shown: some 26% with an inconclusive outcome. Calls come from the whole dose curve; as a rule, active = well fitted inhibition curve with a large enough effect; inconclusive = small, poorly fitted or top-dose-only effect; inactive = flat fitted curve, though single readings scatter. The list comes from a sample in which actives are over-represented; it also holds close analogues and randomly drawn compounds.
Classes to choose from: active, inactive

Cc1cc(C)c2c(c1)cc(C)c1nnc(SCC(=O)Nc3cc(C)on3)n12: active
COc1cc(NC(=O)C2CC(c3ccccc3O)=NO2)c(OC)cc1Cl (stereo not drawn): inactive

stdin: Identify the outcome logged in this assay for the molecule shown: CC(C)CNC(=O)C(=O)NCC(c1ccc2c(c1)OCO2)N1CCOCC1 (stereo not drawn)
stdout: inactive

----------
- protocol: qHTS for Inhibitors of human tyrosyl-DNA phosphodiesterase 1 (TDP1): qHTS in cells in presence of CPT; further: nearly all actives have a fitted effect of over 55% in size
- appliedConditions: chicken DT40 Tdp1-/-;hTDP1 cells + 20 nM CPT, ATP luminescence, 48 h; series mostly up to 46.2 µM
Hit rate of the full screen: of about 420,000 compounds, about 50,000 (12%) were called active. Roughly 26% stayed inconclusive and do not appear here. Calls come from the whole dose curve; as a rule, active = well fitted inhibition curve with a large enough effect; inconclusive = small, poorly fitted or top-dose-only effect; inactive = flat fitted curve, though single readings scatter. What follows is part of a selection rich in actives, with near analogues and random picks from the rest.
Classes to choose from: active, inactive

O=C1CCN(Cc2ccc([N+](=O)[O-])cc2)CCN1[C@H](CO)Cc1ccccc1: inactive
CCCCNC(=O)OCCSCCS(=O)(=O)c1ccc(Cl)cc1: inactive
CC1CN(C(=O)c2cc(COc3c(F)cccc3F)on2)CCN1C (centres undefined): inactive

Note: attention shifts to another entry.
stdin: Identify the outcome logged in this assay for the molecule shown: CC(C)=C1SC(N2CCN(c3cccc(C)c3)CC2)=NC1=O
stdout: active

----------
- protocol: qHTS for Inhibitors of human tyrosyl-DNA phosphodiesterase 1 (TDP1): qHTS in cells in presence of CPT; further: nearly all actives have a fitted effect of over 55% in size
- appliedConditions: chicken DT40 Tdp1-/-;hTDP1 cells + 20 nM CPT, ATP luminescence, 48 h; series mostly up to 46.2 µM
In all, about 420,000 compounds went through this assay and about 50,000 (12%) were called active. Another 26% or so got no clear call; they are omitted. The call rests on the fitted dose curve; in most records, active means well fitted inhibition curve with a large enough effect; inconclusive means small, poorly fitted or top-dose-only effect; inactive means flat fitted curve, though single readings scatter. This is one part of a sample in which actives are shown more often than they occur.
Classes to choose from: T = active, F = inactive

CC(C)Cc1ccc(-c2cc3nc(NCc4cccc(Cl)c4)ccn3n2)cc1: T
C=C1C=C(C)n2ncc(C(=O)Nc3ccccc3O)c2N1: F
C=C1C=C(C(F)F)n2ncc(C(=O)NCCc3ccccc3OC)c2N1: T
Oc1[nH]c2ccccc2c1N=Nc1c(F)c(F)c(F)c(F)c1F: T
Cc1cc(N/N=C\c2ccc(Br)cc2)nc(-n2nc(C)cc2C)n1: T
Cc1cc(NC(=O)COC(=O)/C=C/c2ccc(C)o2)no1: F
COc1ccc(N(C(=O)CNC(=O)c2ccco2)C(C(=O)NCC2CCCO2)c2ccccc2)cc1Cl (centres undefined): F
CCOC(=O)Cc1csc(NC(=O)COc2ccc3c(C)cc(=O)oc3c2)n1: F

Note: attention shifts to another entry.
stdin: Identify the outcome logged in this assay for the compound shown: CCc1c(C)nc(N2CCN(Cc3ccccc3)CC2)[nH]c1=O
stdout: F
